Measured pIC50 values are reported for all entries that follow.
- target_under_test: IL-23R (Homo sapiens)
- Sequence (Q5VWK5 24-629): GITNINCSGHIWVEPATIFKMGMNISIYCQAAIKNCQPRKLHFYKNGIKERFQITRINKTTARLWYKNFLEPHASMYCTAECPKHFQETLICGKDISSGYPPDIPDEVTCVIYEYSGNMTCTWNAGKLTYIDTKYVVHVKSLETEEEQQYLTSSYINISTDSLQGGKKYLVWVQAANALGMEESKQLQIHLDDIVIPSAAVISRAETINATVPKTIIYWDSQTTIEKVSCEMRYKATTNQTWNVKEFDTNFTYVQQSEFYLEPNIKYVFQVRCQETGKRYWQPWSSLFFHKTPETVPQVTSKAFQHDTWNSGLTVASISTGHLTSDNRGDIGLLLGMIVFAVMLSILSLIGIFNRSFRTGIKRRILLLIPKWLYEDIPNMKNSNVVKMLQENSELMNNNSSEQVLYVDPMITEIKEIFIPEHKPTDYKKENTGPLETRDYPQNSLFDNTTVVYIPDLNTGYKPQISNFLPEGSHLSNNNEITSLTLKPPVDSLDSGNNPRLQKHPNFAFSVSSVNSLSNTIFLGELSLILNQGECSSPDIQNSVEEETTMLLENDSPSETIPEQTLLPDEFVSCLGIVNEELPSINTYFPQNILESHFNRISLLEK
- test_description: DB cells IL23R pSTAT3 cell assay (pStat3 HTRF)
- Assay type: cell-based
- condition_notes: Table E3; DB cells, IL-23 0.5 nM, 30 minutes at 37° C.; read-out: pStat3 HTRF (IC50)
pIC50: −log10 of the molar value.
quantity_measured: pIC50

1) CC(=O)NCCCC[C@@H]1NC(=O)[C@H](Cc2c[nH]c3c(C)cccc23)NC(=O)[C@H]([C@@H](C)O)NC(=O)[C@H](CC(N)=O)NC(=O)[C@@H](NC(C)=O)C(C)(C)SSC(C)(C)[C@@H](C(=O)N[C@@H](Cc2ccc(OCCN)cc2)C(=O)N[C@@H](Cc2ccc3ccccc3c2)C(=O)N[C@@](C)(CCCCN)C(=O)N[C@@H](CCCCNC(C)=O)C(=O)N[C@@H](CC(N)=O)C(=O)N(C)[C@@H](CCCNC(=N)N)C(N)=O)NC1=O ... 8.00 to 9.00
2) CC(=O)NCCCC[C@H](NC(=O)[C@](C)(CC(C)C)NC(=O)[C@H](Cc1ccc2ccccc2c1)NC(=O)[C@H](Cc1ccc(OCCN)cc1)NC(=O)[C@H]1NC(=O)[C@H](CCC(N)=O)NC(=O)[C@H](Cc2c[nH]c3c(C)cccc23)NC(=O)[C@H]([C@@H](C)O)NC(=O)[C@H](CC(N)=O)NC(=O)[C@@H](NC(C)=O)C(C)(C)SSC1(C)C)C(=O)N1CCC[C@@H]1C(=O)NCCC(N)=O ... 7.00 to 8.00

###

Recorded SIF t½ by entry
- test_description: in vitro
- Type: in vitro ADME
- condition_notes: simulated intestinal fluid, pancreatin, pH 6.8, 37° C.; § matrix is 100 fold dilution of standard SIF concentration
Bridge positions count the residues as written; N and C are the ends. Square brackets hold non-standard residues; d marks the D form. Peptide text beside a SMILES is read from it. Trp(7-Me) = Cc1cccc2c(C[C@H](N)C(=O)O)c[nH]c12; 2Nal = N[C@@H](Cc1ccc2ccccc2c1)C(=O)O; AEF = NCCOc1ccc(C[C@H](N)C(=O)O)cc1; Cit = NC(=O)NCCC[C@H](N)C(=O)O; Pen = CC(C)(S)[C@H](N)C(=O)O; αMeK = C[C@](N)(CCCCN)C(=O)O; βAla = NCCC(=O)O
quantity_measured: SIF t½ (h)

1. CC(=O)NCCCC[C@H](NC(=O)[C@](C)(CC(C)C)NC(=O)[C@H](Cc1ccc2ccccc2c1)NC(=O)[C@H](Cc1ccc(OCCN)cc1)NC(=O)[C@H]1NC(=O)[C@H](CCC(N)=O)NC(=O)[C@H](Cc2c[nH]c3cc(C)ccc23)NC(=O)[C@H]([C@@H](C)O)NC(=O)[C@H](CC(N)=O)NC(=O)[C@@H](NC(C)=O)C(C)(C)SSC1(C)C)C(=O)N[C@@H](CC(N)=O)C(=O)N[C@@H](CC(N)=O)C(N)=O ... 24
2. CC(=O)N[C@H]1CCSC[C@@H](C(=O)N[C@@H](Cc2ccc(OCCN)cc2)C(=O)N[C@@H](Cc2ccc3ccccc3c2)C(=O)NC2(C(=O)N[C@@H](CCC(=O)O)C(=O)N[C@@H](CC(N)=O)C(=O)N[C@@H](CC(N)=O)C(N)=O)CCOCC2)NC(=O)[C@H](CCC(N)=O)NC(=O)[C@H](Cc2c[nH]c3c(C)cccc23)NC(=O)[C@H]([C@@H](C)O)NC(=O)[C@H](CCC(N)=O)NC1=O ... 24
3. CC(=O)NCCCC[C@@H]1NC(=O)[C@H](Cc2c[nH]c3c(C)cccc23)NC(=O)[C@H]([C@@H](C)O)NC(=O)[C@H](CC(N)=O)NC(=O)[C@@H](NC(C)=O)C(C)(C)SSC(C)(C)[C@@H](C(=O)N[C@@H](Cc2ccc(OCCN)cc2)C(=O)N[C@@H](Cc2ccc3ccccc3c2)C(=O)N[C@@](C)(CCCCN)C(=O)N[C@@H](CCCCNC(C)=O)C(=O)N[C@@H](CC(N)=O)C(=O)N[C@H](Cc2ccccc2)C(N)=O)NC1=O ... 14
4. CC(=O)N[C@@H]1C(=O)N[C@@H](CC(N)=O)C(=O)N[C@@H]([C@@H](C)O)C(=O)N[C@@H](Cc2c[nH]c3c(C)cccc23)C(=O)N[C@@H](CCCNC(N)=O)C(=O)N[C@H](C(=O)N[C@@H](Cc2ccc(OCCN)cc2)C(=O)N[C@@H](Cc2ccc3ccccc3c2)C(=O)N[C@@](C)(CCCCN)C(=O)N[C@@H](CCCNC(N)=O)C(=O)NCCC(=O)NCCC(N)=O)C(C)(C)SSC1(C)C [compound 281] (Ac-[Pen]NT[Trp(7-Me)][Cit][Pen][AEF][2Nal][αMeK][Cit][βAla][βAla]-NH2; disulfide 1-6) ... 14
